biological target: Cathepsin S (Homo sapiens)
Sequence (P25774 whole entry): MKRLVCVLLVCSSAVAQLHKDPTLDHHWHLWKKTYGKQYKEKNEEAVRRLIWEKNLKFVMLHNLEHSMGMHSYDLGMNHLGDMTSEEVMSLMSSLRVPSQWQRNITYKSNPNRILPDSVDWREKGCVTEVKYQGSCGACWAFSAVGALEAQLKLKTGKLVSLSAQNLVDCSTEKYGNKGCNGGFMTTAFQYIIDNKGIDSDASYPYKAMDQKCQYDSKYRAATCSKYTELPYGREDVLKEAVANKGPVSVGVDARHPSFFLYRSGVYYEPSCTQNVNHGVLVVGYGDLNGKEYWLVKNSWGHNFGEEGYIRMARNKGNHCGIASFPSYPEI
pIC50: −log10 of the molar value.
reported endpoint: pIC50

Completed entries (count: 2):
>>> recorded_value("CCCC[C@H](NC(=O)O[C@H](Cc1nnc(-c2ccc(C(F)(F)F)cc2)o1)C(C)(C)C)C(=O)C(=O)NN1CCOC1=O")
5.92
>>> recorded_value("CCCC[C@H](NC(=O)O[C@H](Cc1nnc(-c2ccc(C(F)(F)F)cc2)o1)C(C)(C)C)C(=O)C(=O)Nc1ccn[nH]1")
6.28

(A) CCCC[C@H](NC(=O)OC(Cc1nnc(-c2ccc(F)cc2)o1)C(C)(C)C)C(=O)C(=O)N[C@H]1CCCNC1=O (some centres undefined)
(B) CCCC[C@H](NC(=O)O[C@H](Cn1ccc(-c2ccc(C(F)(F)F)cc2)n1)C(C)(C)C)C(=O)C(=O)Nc1ccccn1
Prompt: Select one: A or B . Criterion: greater recorded pIC50. Mark your selection by writing its label.
Completion: A
